Reference source for all entries: PubChem BioAssay (NCI)

tested on: NCI-H226 lung; assay: NCI tumour cell line growth inhibition, 48 h; in the data active = GI50 below about 0.43 µM; inactive = the rest
# output must be one of TRUE (active), FALSE (inactive)

For this compound, state the assay outcome: `COc1ccc(-n2c3c(c4c(CN(C)C)c(O)c(C)cc42)CCc2ccccc2C3=O)cc1` FALSE

For this compound, state the assay outcome: CNCCOC(=O)/C=C1/CCC2C(C(O)CC3C(C)(C(=O)OC)CCCC23C)C1C (stereo not given) TRUE

For this compound, state the assay outcome: `COc1ccc2[nH]cc(-c3nc(-c4c[nH]c5ccncc45)cs3)c2c1` FALSE

For this compound, state the assay outcome: `Nc1ccc(-n2c(=O)oc3ccc(Cl)cc3c2=O)c(Cl)c1` TRUE

For this compound, state the assay outcome: `COc1cc2c3c(n(CCCNCCNCCCN)c(=O)c2cc1OC)-c1cc2c(cc1C3=O)OCO2` FALSE

For this compound, state the assay outcome: `COc1ccc2c(c1)C(=O)c1c-2n(CCCN2CCOCC2)c(=O)c2cc([N+](=O)[O-])ccc12` TRUE

---

system: HOP-92 NSCLC; assay: NCI tumour cell line growth inhibition, 48 h
property_name: TGI (µM)
Report only the number, with the unit µM understood.

O=C(/C=C/c1ccccc1O)/C=C/c1ccccc1O : 4.87
O=[N+]([O-])c1cccc(-c2cc(-c3cc(Br)ccc3O)[nH]n2)c1 : 8.08
COc1ccc(/C=C\c2cc(OC)c(OC)c(OC)c2)cc1OCC(=O)Nc1nc2ccc(OC(F)(F)F)cc2s1 : 45.1
CCOC(=O)N(C)C1(c2ccccc2)CCN(CCCC(=O)c2ccc(F)cc2)CC1 : 78.6
CC(=O)NC1=C(C)C(=O)c2c(nc3n2CC[C@H]3OC(C)=O)C1=O : 1.83

Give TGI for the following molecule: `COC(=O)[C@@H]1CCCN1C(=O)[C@H]1CCCN1C(=O)[C@@H](Cc1c[nH]c2ccccc12)NC(=S)Nc1cc(C(F)(F)F)cc(C(F)(F)F)c1` 3.43

Give TGI for the following molecule: `O=C(/C=C\c1ccc2ccccc2n1)c1cc(Cl)ccc1O` 9.35

Give TGI for the following molecule: `Oc1cc(Cl)ccc1Cc1ccc(Cl)cc1O` 8.11

---

system: UO-31 renal; test: NCI tumour cell line growth inhibition, 48 h
property_name: TGI (µM)
Report only the number, with the unit µM understood.

Would you please look over these solved cases?
NC1=C(Cl)C(=O)c2ccccc2C1=O : 29.9
N=C(N)c1ccc(-c2ccc(-c3ccc(F)cc3)o2)o1 : 2.78
CCOC(=O)C1=C(c2ccccc2)N(c2ccc(OC)cc2)[C@]2(C#N)C(O)=C(Cl)C(Cl)=C(O)[C@]12C#N : 68
Cc1ccc(C[P+](c2ccccc2)(c2ccccc2)c2ccccc2)cc1 : 39.4

Next up:
Give TGI for the following compound: `Cc1cc([N+](=O)[O-])ccc1N=NC(=O)NNc1ccc([N+](=O)[O-])cc1C` 25.2

---

Listed compounds paired with reported TGI
tested on: MCF7 breast; experiment: NCI tumour cell line growth inhibition, 48 h

Would you please look over these solved cases?
CC(C)C(C/C=C1\CC(CO)(COC(=O)CC(C(C)C)C(C)C)OC1=O)C(C)C (centres undefined) : 31.3 µM
CCOC(=O)C(=Cn1c(=S)[nH]c2ccc([N+](=O)[O-])cc21)C(=O)OCC : > 100 µM
C[C@H](CCC1=NCCN1)[C@H]1CC[C@H]2[C@@H]3CC[C@@H]4C[C@H](O)CC[C@]4(C)[C@H]3C[C@H](O)[C@]12C : 28.5 µM

Give TGI for the following compound: `COc1ccc2c(c1)-c1oc3ccccc3c(=O)c1CO2` > 100 µM

Give TGI for the following compound: COC1/C=C/C(C)C(C(C)C(OC)C(C)CCC(=O)C(C)C(C/C=C/N(C)C=O)OC)OC(=O)/C=C/C=C(\C)CC(OC)C(OC)C2=CC(=O)O[C@@H](C(C)C(OC)CC(OC)/C=C/C(C)C(O)C1)[C@H]2O (some centres undefined) 0.977 µM

Give TGI for the following compound: COc1ccc2c(c1)[C@@]1(C)CCC3c4ccc(O)cc4CCC3C1C2 (some centres undefined) 30.8 µM

Give TGI for the following compound: `Cc1cc(C)c2c(N)c3cccc(C)c3nc2n1` 10.3 µM

Give TGI for the following compound: `CCN1CCC(CC(=O)Nc2n[nH]c3nc(-c4cccs4)c(Br)cc23)CC1` 18.5 µM

Give TGI for the following compound: `O=C1/C(=C/c2ccco2)NC(=S)N1CN1CCOCC1` > 100 µM

---

system: SW-620 colon; test: NCI tumour cell line growth inhibition, 48 h
property_name: TGI

COC(=O)[C@]12CC=C3O[C@@H]4OC5(CCCCC5)O[C@@H]4[C@H]3C1C(=O)C=CC2=O (some centres undefined) : 32.1 µM
CCOc1cc(C2SCC(=O)N2c2nc3cc4sc(N5C(=O)CSC5c5ccc(O)c(OCC)c5)nc4cc3s2)ccc1O (centres undefined) : > 100 µM
CCCCCCN1CCN(Cc2ccc(N(CC)CC)cc2)C(=O)C1=O : > 100 µM
CC(=O)NC1=C(C)C(=O)c2c(nc3n2CC[C@H]3OC(C)=O)C1=O : 3.26 µM
Cc1cccc2c1C/C(=C\c1cccc(C)c1C(=O)O)C2=O : > 100 µM
OCCO[P+]1(OCCO)n2c3ccc2C(c2ccccc2)=C2C=CC(=N2)C(c2ccccc2)=c2ccc(n21)=C(c1ccccc1)C1=NC(=C3c2ccccc2)C=C1 : 1.09 µM
CNCCOC(=O)/C=C1/CCC2C(C(O)CC3C(C)(C(=O)OC)CCCC23C)C1C (centres undefined) : 0.0394 µM
CO/N=C(/COc1c(-c2ccccc2)oc2ccccc2c1=O)c1ccc(F)cc1 : > 100 µM

Give TGI for the following compound: `CC(=O)NC1=C(NCc2ccc(Cl)cc2)C(=O)c2ccccc2C1=O` 13.6 µM

Give TGI for the following compound: `O=[N+]([O-])/C=C/c1ccc([N+](=O)[O-])cc1` 3.21 µM

---

test system: OVCAR-8 ovarian; assay: NCI tumour cell line growth inhibition, 48 h
Listed compounds paired with reported TGI

Would you please look over these solved cases?
Cc1cc2nc3c4cccc(O)c4n(CCN(C)C)c3nc2cc1C : 10.3 µM
Oc1ccc(CN(Cc2ccc(C(F)(F)F)cc2)Cc2ccc(O)c3ncccc23)c2cccnc12 : > 100 µM
CC(C)(C)c1cc(C2COC(=O)COCC(=O)OCCOCCOCCO2)cc(C(C)(C)C)c1O (stereo unspecified) : > 100 µM
COc1cc2c(c(OC)c1OC)-c1ccc(SC)c(=O)cc1C(CC(=O)Oc1cccc(C#N)c1)C2 (stereo unspecified) : 6.88 µM
COc1ccc(-n2c3c(c4c(CN(C)C)c(O)c(C)cc42)CCc2ccccc2C3=O)cc1 : > 100 µM
CN(C)S(=O)(=O)c1ccc(Nc2ccc(O)c3c2C(=O)c2c([N+](=O)[O-])ccc(O)c2C3=O)cc1 : > 100 µM
CCOC(=O)N(C)C1(c2ccccc2)CCN(CCCC(=O)c2ccc(F)cc2)CC1 : > 100 µM
CN(c1ccccc1Cl)S(=O)(=O)c1ccccc1[N+](=O)[O-] : > 100 µM

Write down measured TGI (OVCAR-8 ovarian) for this compound. `C/C(N=Nc1nc2ccccc2o1)=C1/C=CC=CN1O` > 100 µM

Write down measured TGI (OVCAR-8 ovarian) for this compound. `COc1ccccc1NC(=O)CC(=O)NNCC(=O)Nc1nnc(-c2ccccc2)o1` > 100 µM

Write down measured TGI (OVCAR-8 ovarian) for this compound. C=C1C(=O)O[C@H]2C[C@@H]1CCC1(C)OC1CC/C(C)=C/CC[C@H]2C (stereo partly specified) 72.2 µM

Write down measured TGI (OVCAR-8 ovarian) for this compound. `CC(C)(C)OC(=O)NCC(=O)N1CCCN(C(=O)CNC(=O)OC(C)(C)C)CC1` > 100 µM

Write down measured TGI (OVCAR-8 ovarian) for this compound. `O=C(/C=C\c1ccc2ccccc2n1)c1cc(Cl)ccc1O` 14.7 µM

---

Listed compounds paired with reported TGI
test system: HCT-15 colon; test: NCI tumour cell line growth inhibition, 48 h

Would you please look over these solved cases?
CCOC(=O)C1=C(c2ccccc2)N(c2ccc(OC)cc2)[C@]2(C#N)C(O)=C(Cl)C(Cl)=C(O)[C@]12C#N : 40.8 µM
O=[N+]([O-])c1ccc(Cl)cc1C=NC12CC3CC(CC(C3)C1)C2 : > 100 µM
CC(C)(C)OC(=O)NCC(=O)N1CCCN(C(=O)CNC(=O)OC(C)(C)C)CC1 : > 100 µM
COc1nc2[nH]ccc2c(=O)n1C : > 100 µM

Give TGI for the following compound: `Cc1ccc2nc(Cl)c(/C=N/N3C(=O)/C(=C/c4ccc(N(C)C)cc4)N=C3c3ccccc3)cc2c1` > 100 µM
